# Test system: A549 cells (KRAS G12S)
# Experimental details: Cell-based pERK HTRF assay in A549 cells (Biological Example 5)
# Experimental conditions: Homo sapiens
Recorded endpoint: IC50

Reference set, count: 4
Compound: N#Cc1cnn2c1CN(c1nc(OC[C@@]34CCCN3C[C@H](F)C4)nc3c(F)c(-c4ccc(F)c5sc(N)c(C#N)c45)c(C(F)(F)F)cc13)CC2
Recorded endpoint: IC50
Observed: 100 to 1000 nM
--
Compound: N#Cc1c(N)sc2c(F)ccc(-c3c(C(F)(F)F)cc4c(N5CCOCC5)nc(OC[C@@]56CCCN5C[C@H](F)C6)nc4c3F)c12 (single isomer, unassigned)
Recorded endpoint: IC50
Observed: 100 to 1000 nM
--
Compound: N#Cc1c(N)sc2c(F)ccc(-c3c(C(F)(F)F)cc4c(N5CC6CC(C5)O6)nc(OC[C@@]56CCCN5C[C@H](F)C6)nc4c3F)c12 (single isomer, unassigned)
Recorded endpoint: IC50
Observed: ≤ 100 nM
--
Compound: CCN(c1nc(OC[C@@]23CCCN2C[C@H](F)C3)nc2c(F)c(-c3ccc(F)c4sc(N)c(C#N)c34)c(Cl)cc12)[C@@H]1CCN(C(=O)C2CC2)[C@@H]1C
Recorded endpoint: IC50
Observed: 100 to 1000 nM

Now turn to the next compound.
**Query** # input compound: CC(=O)N1CC[C@@H](N(C)c2nc(OC[C@@]34CCCN3C[C@H](F)C4)nc3c(F)c(-c4ccc(F)c5sc(N)c(C#N)c45)c(C(F)(F)F)cc23)[C@H]1C (single isomer, unassigned) ; wanted: its IC50
**Result** ≤ 100 nM

----------
# Target or test system: Avi-KRAS G12R (1-169) GppNHp/RAF1 RBD-3xFLAG (52-151) (Homo sapiens, UniProt P01116, G12R)
# Construct: Avi-KRAS G12R (1-169)
# Sequence (P01116 1-169 isoform P01116-2 G12R): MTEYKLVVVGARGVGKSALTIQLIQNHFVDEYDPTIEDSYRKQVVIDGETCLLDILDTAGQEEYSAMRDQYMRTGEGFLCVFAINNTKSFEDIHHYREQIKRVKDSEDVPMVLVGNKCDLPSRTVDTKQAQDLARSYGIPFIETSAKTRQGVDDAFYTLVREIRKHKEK
# Experimental details: Raf1-KRAS G12R-GppNHP disruption HTRF assay (Biological Example 1)
# Type: binding
# Experimental conditions: KRAS G12R, GppNHp-loaded; Table 11
# Experimental: A protein:protein interaction (PPI) Homogeneous Time Resolved Fluorescence (HTRF) assay was used to determine the effectiveness of compounds of the present disclosure in disrupting KRAS protein and effector RAF1 binding. The assay buffer included: 50 mM Tris pH 7.5, 100 mM NaCl, 5 mM MgCl2, 0.1% BSA, 0.01% Tween, and 10% DMSO. The bead buffer included: 50 mM Tris pH 7.5, and 0.01% Tween 20. […] Data was reported as percentage of activity, with DMSO as 100%. Data was plotted and analyzed using Prism 8.
I'd be grateful if you could share measured IC50 for these entries.

Reference set, count: 2
Compound: CN(c1nc(OC[C@@]23CCCN2C[C@H](F)C3)nc2c(F)c(-c3ccc(F)c4sc(N)c(C#N)c34)c(C(F)(F)F)cc12)[C@H]1CCS(=O)(=O)C1 (single isomer, unassigned) [Compound 221]
Observed: 0.1 to 1 µM
//
Compound: CCN(c1nc(OC[C@@]23CCCN2C[C@H](F)C3)nc2c(F)c(-c3ccc(F)c4sc(N)c(C#N)c34)c(C(F)(F)F)cc12)C(C)C
Observed: 0.1 to 1 µM

Now turn to the next compound.
**Query** # input compound: `N#Cc1c(N)sc2c(F)ccc(-c3c(C(F)(F)F)cc4c(N5CC[C@@H](O)C5)nc(OC[C@@]56CCCN5C[C@H](F)C6)nc4c3F)c12` ; wanted: its IC50
**Result** 0.1 to 1 µM

----------
I'd be grateful if you could share measured IC50 for these entries.
# Target or test system: Avi-KRAS G12R (1-169) GppNHp/RAF1 RBD-3xFLAG (52-151) (Homo sapiens, UniProt P01116, G12R)
# Construct: Avi-KRAS G12R (1-169)
# Experimental details: Raf1-KRAS G12R-GppNHP disruption HTRF assay (Biological Example 1)
# Assay type: binding
# Experimental conditions: KRAS G12R-GppNHp/RAF1 RBD HTRF

Molecule: CC(=O)N1CCC2[C@H]1CCCN2c1nc(OC[C@@]23CCCN2C[C@H](F)C3)nc2c(F)c(-c3ccc(F)c4sc(N)c(C#N)c34)c(C(F)(F)F)cc12 (some centres unmarked)
IC50: 1000 to 10000 nM

Molecule: CCN(c1nc(OC[C@@]23CCCN2C[C@H](F)C3)nc2c(F)c(-c3ccc(F)c4sc(N)c(C#N)c34)c(C(F)(F)F)cc12)[C@@H]1CCN(C(C)=O)[C@@H]1C
IC50: 100 to 1000 nM

Molecule: CCC(=O)N1C[C@@H](N(CC)c2nc(OC[C@@]34CCCN3C[C@H](F)C4)nc3c(F)c(-c4ccc(F)c5sc(N)c(C#N)c45)c(C(F)(F)F)cc23)C[C@H]1C
IC50: 100 to 1000 nM

Would you be so kind as to report IC50 for each listed record?
1. CCN(c1nc(OC[C@@]23CCCN2C[C@H](F)C3)nc2c(F)c(-c3ccc(F)c4sc(N)c(C#N)c34)c(C(F)(F)F)cc12)[C@H]1CCS(=O)(=O)C1 [Compound 350]
2. CC(=O)N1CCN(c2nc(OC[C@@]34CCCN3C[C@H](F)C4)nc3c(F)c(-c4ccc(F)c5sc(N)c(C#N)c45)c(C(F)(F)F)cc23)C2CC21 (some centres unmarked)

**Result**
100 to 1000 nM
1000 to 10000 nM

----------
# Target or test system: Avi-KRAS G12D (2-169) GTP/RAF1 RBD-3xFLAG (51-131) (Homo sapiens, UniProt P01116, G12D)
# Construct: Avi-KRAS G12D (2-169)
# Sequence (P01116 2-169 isoform P01116-2 G12D): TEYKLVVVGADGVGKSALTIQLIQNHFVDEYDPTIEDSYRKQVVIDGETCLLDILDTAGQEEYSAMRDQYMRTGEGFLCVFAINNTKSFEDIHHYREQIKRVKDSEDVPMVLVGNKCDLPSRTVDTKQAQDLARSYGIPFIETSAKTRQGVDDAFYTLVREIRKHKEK
# Experimental details: Raf1-KRAS G12D-GTP disruption HTRF assay (Biological Example 3)
# Format: binding
# Experimental conditions: KRAS G12D, GTP-loaded
# Description: Biological Example 3: Disrupting RAS-Effector Binding HTRF Assay A protein:protein interaction (PPI) Homogeneous Time Resolved Fluorescence (HTRF) assay was used to determine the effectiveness of compounds in disrupting KRAS protein and effector (RAF1) binding. […] Plates were analyzed on an Envision plate reader using the following setting: Excitation 320 nm, Bandwidth 75 nm; Emission 615 nm, Bandwidth 85 nm; Gain 100%; Flashes 100; Lag 60 μs. […] Data was plotted and analyzed using Prism 8. […]
pIC50: −log10 of the molar value.
I'd be grateful if you could share measured pIC50 for these entries.

Reference set, count: 8
Compound: N#Cc1c(N)sc2c(F)ccc(-c3c(C(F)(F)F)cc4c(N(C5CC5)[C@H]5CCS(=O)(=O)C5)nc(OC[C@@]56CCCN5C[C@H](F)C6)nc4c3F)c12
Observed: 5.00 to 6.00

Compound: CCN(c1nc(OC[C@@]23CCCN2C[C@H](F)C3)nc2c(F)c(-c3ccc(F)c4sc(N)c(C#N)c34)c(C(F)(F)F)cc12)[C@H]1C[C@H]2CN(CC(F)(F)F)C(=O)N2C1 (atropisomer, axis not shown)
Observed: 6.00 to 7.00

Compound: CN(Cc1ccnnc1)c1nc(OC[C@@]23CCCN2C[C@H](F)C3)nc2c(F)c(-c3ccc(F)c4sc(N)c(C#N)c34)c(C(F)(F)F)cc12 (atropisomer, axis not shown)
Observed: 6.00 to 7.00

Compound: CCN(c1nc(OCC23CCCN2CC(F)C3)nc2c(F)c(-c3ccc(F)c4sc(N)c(C#N)c34)c(C(F)(F)F)cc12)C(C)c1cccnc1 (stereo not drawn)
Observed: 5.00 to 6.00

Compound: CCN(c1nc(OC[C@@]23CCCN2C[C@H](F)C3)nc2c(F)c(-c3ccc(F)c4sc(N)c(C#N)c34)c(C(F)(F)F)cc12)[C@H]1CCN(C(=O)[C@@H]2C[C@@H]2C)C1 (atropisomer, axis not shown)
Observed: 6.00 to 7.00

Compound: CCN(c1nc(OC[C@@]23CCCN2C[C@H](F)C3)nc2c(F)c(-c3ccc(F)c4sc(N)c(C#N)c34)c(C(F)(F)F)cc12)[C@H]1CCN(C(=O)N(C)C)[C@@H]1C (atropisomer, axis not shown)
Observed: ≥ 7.00

Compound: CCN(c1nc(OC[C@@]23CCCN2C[C@H](F)C3)nc2c(F)c(-c3ccc(F)c4sc(N)c(C#N)c34)c(C(F)(F)F)cc12)[C@H]1C[C@@H]2CN(C)C(=O)N2C1 (atropisomer, axis not shown)
Observed: 6.00 to 7.00

Compound: CCN(c1nc(OC[C@@]23CCCN2C[C@H](F)C3)nc2c(F)c(-c3ccc(F)c4sc(N)c(C#N)c34)c(C(F)(F)F)cc12)[C@H]1CCN(C(=O)c2ccc(C#N)s2)C1 (atropisomer, axis not shown)
Observed: 6.00 to 7.00

Would you be so kind as to report pIC50 for each listed record?
1. N#Cc1c(N)sc2c(F)ccc(-c3c(C(F)(F)F)cc4c(N5Cc6ccncc6C5)nc(OC[C@@]56CCCN5C[C@H](F)C6)nc4c3F)c12
2. CCN(c1nc(OC[C@@]23CCCN2C[C@H](F)C3)nc2c(F)c(-c3ccc(F)c4sc(N)c(C#N)c34)c(C(F)(F)F)cc12)[C@H]1C[C@H](C)N(C(=O)C2COC2)C1 (atropisomer, axis not shown)
3. CCN(c1nc(OC[C@@]23CCCN2C[C@H](F)C3)nc2c(F)c(-c3ccc(F)c4sc(N)c(C#N)c34)c(C(F)(F)F)cc12)[C@H]1CCN(C(=O)C2CC2)C1
4. CCN(c1nc(OC[C@@]23CCCN2C[C@H](F)C3)nc2c(F)c(-c3ccc(F)c4sc(N)c(C#N)c34)c(C(F)(F)F)cc12)[C@H]1CCN(C(=O)c2ccon2)C1 (atropisomer, axis not shown)
5. CCC(=O)N1CC[C@@H](N(CC)c2nc(OC[C@@]34CCCN3C[C@H](F)C4)nc3c(F)c(-c4ccc(F)c5sc(N)c(C#N)c45)c(C(F)(F)F)cc23)C1

**Result**
1. 5.00 to 6.00
2. 6.00 to 7.00
3. 6.00 to 7.00
4. ≥ 7.00
5. 6.00 to 7.00

Would you be so kind as to report pIC50 for each listed record?
1. CCN(c1nc(OC[C@@]23CCCN2C[C@H](F)C3)nc2c(F)c(-c3ccc(F)c4sc(N)c(C#N)c34)c(C(F)(F)F)cc12)[C@H]1C[C@H](C)N(C(=O)OC)C1 (atropisomer, axis not shown)
2. CCN(c1nc(OC[C@@]23CCCN2C[C@H](F)C3)nc2c(F)c(-c3ccc(F)c4sc(N)c(C#N)c34)c(C(F)(F)F)cc12)[C@H]1CCN(C(=O)c2coc(C)n2)C1 (atropisomer, axis not shown)
3. N#Cc1c(N)sc2c(F)ccc(-c3c(C(F)(F)F)cc4c(N(CCF)[C@H]5CCN(C(=O)[C@@H]6CC6(F)F)C5)nc(OC[C@@]56CCCN5C[C@H](F)C6)nc4c3F)c12 (atropisomer, axis not shown)
4. CCN(c1nc(OC[C@@]23CCCN2C[C@H](F)C3)nc2c(F)c(-c3ccc(F)c4sc(N)c(C#N)c34)c(C(F)(F)F)cc12)[C@@H]1CO[C@H]2OCC[C@H]21 (atropisomer, axis not shown)

**Result**
["6.00 to 7.00", "≥ 7.00", "6.00 to 7.00", "6.00 to 7.00"]

**Query** GET /values?readout=pIC50&system=Avi-KRAS G12D (2-169) GTP/RAF1 RBD-3xFLAG (51-131) (Homo sapiens, UniProt P01116, G12D)&item= CCN(c1nc(OC[C@@]23CCCN2C[C@H](F)C3)nc2c(F)c(-c3ccc(F)c4sc(N)c(C#N)c34)c(C(F)(F)F)cc12)[C@H]1C[C@@H](C)N(C(=O)C2CC2(F)F)C1 (stereo partly drawn)
**Result** 6.00 to 7.00
